target: T1, monoclonal antibody 21-4-3; experiment: Biacore, captured 21-4-3
T1 construct: mouse IgG1 heavy chain, kappa light chain; also called mAb21-4-3; produced by hybridoma ABH0015 (LMBP-9680-CB)
Listed here are binders together with their documented binding vs Reference Sequence (=100%).
Express it in %; write the number only.

The binder listed as SEQ ID NO 86 (VHH, L11S, T110Q) VHH: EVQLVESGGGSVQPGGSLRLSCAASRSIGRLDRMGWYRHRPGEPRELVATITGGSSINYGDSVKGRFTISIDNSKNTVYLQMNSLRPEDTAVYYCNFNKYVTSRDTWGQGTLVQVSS shows binding vs Reference Sequence (=100%) equal to 64
